# assayedSystem: HDAC6 (Homo sapiens, UniProt Q9UBN7)
# Construct: endogenous in cells
# Sequence (Q9UBN7 whole entry): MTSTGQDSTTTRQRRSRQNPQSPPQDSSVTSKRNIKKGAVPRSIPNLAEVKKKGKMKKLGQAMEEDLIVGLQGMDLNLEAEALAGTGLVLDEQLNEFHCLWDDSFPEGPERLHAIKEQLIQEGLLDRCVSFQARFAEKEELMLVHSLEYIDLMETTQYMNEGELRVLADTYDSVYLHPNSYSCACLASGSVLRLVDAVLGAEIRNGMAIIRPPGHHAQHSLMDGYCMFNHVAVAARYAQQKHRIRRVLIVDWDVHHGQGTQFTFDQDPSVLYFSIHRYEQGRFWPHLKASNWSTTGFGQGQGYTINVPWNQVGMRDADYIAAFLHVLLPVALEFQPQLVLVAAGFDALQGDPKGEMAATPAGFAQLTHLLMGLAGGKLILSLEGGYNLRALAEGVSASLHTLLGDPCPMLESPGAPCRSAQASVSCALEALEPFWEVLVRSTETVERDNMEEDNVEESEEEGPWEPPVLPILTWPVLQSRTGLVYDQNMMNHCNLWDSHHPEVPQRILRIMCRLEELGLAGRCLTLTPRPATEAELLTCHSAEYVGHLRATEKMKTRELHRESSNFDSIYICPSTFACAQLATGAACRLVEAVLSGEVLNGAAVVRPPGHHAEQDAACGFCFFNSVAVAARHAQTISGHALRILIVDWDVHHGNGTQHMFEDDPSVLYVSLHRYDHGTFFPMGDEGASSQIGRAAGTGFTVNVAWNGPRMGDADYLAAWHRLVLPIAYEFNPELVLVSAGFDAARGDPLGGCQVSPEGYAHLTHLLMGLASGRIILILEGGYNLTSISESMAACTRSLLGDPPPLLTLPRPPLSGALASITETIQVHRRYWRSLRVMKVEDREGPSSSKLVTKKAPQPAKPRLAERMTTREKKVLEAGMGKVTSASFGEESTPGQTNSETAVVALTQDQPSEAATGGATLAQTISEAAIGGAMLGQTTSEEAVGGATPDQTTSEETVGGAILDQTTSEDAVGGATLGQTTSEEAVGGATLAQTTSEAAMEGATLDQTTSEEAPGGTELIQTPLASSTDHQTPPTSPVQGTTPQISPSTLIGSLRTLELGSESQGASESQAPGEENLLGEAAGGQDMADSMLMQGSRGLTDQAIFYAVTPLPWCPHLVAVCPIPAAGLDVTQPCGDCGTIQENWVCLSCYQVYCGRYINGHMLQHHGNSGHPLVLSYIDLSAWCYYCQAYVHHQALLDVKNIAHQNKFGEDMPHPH
# assayInfo: Tubulin acetylation cytoblot assay (A549 cells)
# conditionContext: 17-18 h incubation, tubulin acetylation as marker of HDAC6 inhibition, read-out: Tub-Ac EC50
Items are presented alongside their recorded log10 EC50.
observable: log10 EC50 (log10 of the value in nM)

In [3]: df
Out[3]:
                                   compound  reportedmeasurement
0  CC1(Nc2ccc(C(=O)NO)cc2)C(=O)N(Cc2ccccc2Cl)c2ccc(F)cc21 (stereo not shown)                 2.18
1  O=C(NO)c1ccc(NC2CCN(c3ccc(Cl)c(CO)c3)C2=O)cc1 (stereo not shown)                 4.14
2  CC(C)Oc1cccc(N2CCC(Nc3ccc(C(=O)NO)cc3)C2=O)c1 (stereo not shown)                 3.24
3  O=C(NO)c1ccc(NC2CCN(c3cc(Cl)cc(Cl)c3)C2=O)cc1 (stereo not shown)                 3.69
4  O=C(NO)c1ccc(NC2CCN(c3ccc(Cl)cc3)C2=O)cc1 (stereo not shown)                 3.15
5  O=C(NO)c1ccc(NC2CCN(c3ccc(F)cc3)C2=O)cc1 (stereo not shown)                 3.59
6  CC1(Nc2ccc(C(=O)NO)cc2)CCN(c2ccc(Cl)cc2)C1=O (stereo not shown)                 2.72
7  O=C(NO)c1ccc(NC2CCN(c3cccc(-c4ccccc4)c3)C2=O)cc1 (stereo not shown)                 2.85
8  CC1(Nc2ccc(C(=O)NO)cc2)C(=O)N(Cc2ccccc2)c2ccccc21 (stereo not shown)                 3.72
9  CC(C)(c1ccccc1)N1CCC(Nc2ccc(C(=O)NO)cc2)C1=O (stereo not shown)                 3.48

---

# assayedSystem: recombinant human HDAC8 (Homo sapiens, UniProt Q9BY41)
# Construct: made in house; host or cells: insect cells
# Sequence (Q9BY41 whole entry): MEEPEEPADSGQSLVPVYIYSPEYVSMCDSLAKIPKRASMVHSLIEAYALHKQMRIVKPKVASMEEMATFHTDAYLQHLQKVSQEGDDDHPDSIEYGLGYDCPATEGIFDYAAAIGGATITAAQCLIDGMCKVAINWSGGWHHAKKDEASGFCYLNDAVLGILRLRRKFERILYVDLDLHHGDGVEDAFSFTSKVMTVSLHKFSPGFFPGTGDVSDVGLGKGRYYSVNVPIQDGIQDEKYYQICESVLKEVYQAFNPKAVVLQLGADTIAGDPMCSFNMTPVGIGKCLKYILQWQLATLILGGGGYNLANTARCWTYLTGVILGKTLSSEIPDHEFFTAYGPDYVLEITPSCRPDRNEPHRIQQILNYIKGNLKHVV
# assayInfo: HDAC8 inhibition: recombinant HDAC8 fluorometric assay
# Type: biochemical
# conditionContext: HDAC8 IC50, recombinant human HDAC8, substrate Ac-Arg-His-Lys-Lys(ε-acetyl)-AMC
pIC50: −log10 of the molar value.
observable: pIC50

>>> print(df.to_string())
                                   compound                             assayedsystem  observable  reportedmeasurement
0  O=C(NO)c1ccc(NC2CCN(c3ccccc3)C2=O)cc1 (stereo not shown) [Example 1]  recombinant human HDAC8 (Homo sapiens, UniProt Q9BY41)       pIC50                 6.09

---

# assayedSystem: HDAC6 (Homo sapiens, UniProt Q9UBN7)
# Construct: endogenous in cells
# assayInfo: Tubulin acetylation cytoblot assay (A549 cells)
# conditionContext: 17-18 h incubation, tubulin acetylation as marker of HDAC6 inhibition, read-out: Tub-Ac EC50
pEC50: −log10 of the molar value.
Reported values of pEC50 for individual entries
observable: pEC50

In [3]: df
Out[3]:
                                   compound                         assayedsystem  reportedmeasurement
0  O=C(NO)c1ccc(NC2CCN(c3ccc(Cl)c(Cl)c3)C2=O)cc1F (centres unmarked)  HDAC6 (Homo sapiens, UniProt Q9UBN7)                 5.18
1  O=C(NO)c1ccc(NC2CCN(S(=O)(=O)c3ccc(F)cc3)C2)cc1 (centres unmarked)  HDAC6 (Homo sapiens, UniProt Q9UBN7)                 5.14
2  N#Cc1cccc(N2CCC(Nc3ccc(C(=O)NO)cc3)C2=O)c1 (centres unmarked)  HDAC6 (Homo sapiens, UniProt Q9UBN7)                 5.37
3  O=C(NO)c1ccc(NC2CCN(c3ccc(-n4ccnc4)cc3)C2=O)cc1 (centres unmarked)  HDAC6 (Homo sapiens, UniProt Q9UBN7)                 4.97
4  O=C(NO)c1ccc(NC2CC(=O)N(c3ccc(F)cc3)C2)cc1 (centres unmarked)  HDAC6 (Homo sapiens, UniProt Q9UBN7)                 5.77
